Source: ChEMBL document CHEMBL1649175

experiment: Renal clearance in patient with severe renal insufficiency at 400 mg, po administered as single dose; type: ADME, organism-based, Kidney; conditions: human, in vivo, read-out: CL_renal
value-kind: CL renal (mL/min)
Give the number; mL/min is assumed, so skip it.

// query So what does the record say about CL renal for Cc1nnc(C(=O)NC(C)(C)c2nc(C(=O)NCc3ccc(F)cc3)c(O)c(=O)n2C)o1 ?
// result 2.7

----------
tested on: Homo sapiens; assay: Ratio of Cmax in patient with severe renal insufficiency to Cmax in healthy human at 400 mg, po administered as single dose; assay type: ADME, organism-based; conditions: in vivo
value-kind: Cmax (Ratio)

// query For Cc1nnc(C(=O)NC(C)(C)c2nc(C(=O)NCc3ccc(F)cc3)c(O)c(=O)n2C)o1 , what is its reported Cmax (Ratio)?
// result 0.68

----------
assay: Tmax in patient with hepatic insufficiency at 400 mg, po administered as single dose; type: ADME, organism-based; conditions: human, in vivo
value-kind: Tmax
I'd appreciate it if you included the unit after the number.

// query Data request, read-out Tmax, for Cc1nnc(C(=O)NC(C)(C)c2nc(C(=O)NCc3ccc(F)cc3)c(O)c(=O)n2C)o1
// result 2.5 h

----------
experiment: Plasma concentration in patient with hepatic insufficiency at 400 mg, po administered as single dose measured at 12 hrs post dose; type: ADME, organism-based; conditions: human, read-out: Activity
value-kind: concentration at 12 h (nM)
// note: answer is a bare numeric in nM

// query Any idea what its concentration at 12 h is? The molecule is Cc1nnc(C(=O)NC(C)(C)c2nc(C(=O)NCc3ccc(F)cc3)c(O)c(=O)n2C)o1 [RALTEGRAVIR]
// result 143

----------
experiment: Terminal half life in patient with severe renal insufficiency at 400 mg, po administered as single dose; format: ADME, organism-based; settings: human, in vivo
value-kind: half-life (h)
Just the number please, in h, no unit attached.

// query Would you kindly share the measured half-life for Cc1nnc(C(=O)NC(C)(C)c2nc(C(=O)NCc3ccc(F)cc3)c(O)c(=O)n2C)o1 ?
// result 17.2

----------
test: Terminal half life in patient with hepatic insufficiency at 400 mg, po administered as single dose; assay type: ADME, organism-based; details: human, in vivo
value-kind: half-life (h)
Number in h, nothing else.

// query Using the record for Cc1nnc(C(=O)NC(C)(C)c2nc(C(=O)NCc3ccc(F)cc3)c(O)c(=O)n2C)o1 , report its half-life.
// result 7

----------
experiment: Primary phase half life in patient with severe renal insufficiency at 400 mg, po administered as single dose; assay type: ADME, organism-based; conditions: human, in vivo
value-kind: half-life (h)
Write the answer as a number in h, unit excluded.

// query What measured half-life goes with Cc1nnc(C(=O)NC(C)(C)c2nc(C(=O)NCc3ccc(F)cc3)c(O)c(=O)n2C)o1 ?
// result 1.38

----------
assay: Cmax in patient with severe renal insufficiency at 400 mg, po administered as single dose; format: ADME, organism-based; set-up: dose 400 mg, route oral; conditions: human, in vivo
value-kind: Cmax (µM)
Number in µM, nothing else.

// query Entry Cc1nnc(C(=O)NC(C)(C)c2nc(C(=O)NCc3ccc(F)cc3)c(O)c(=O)n2C)o1 : reported Cmax = ?
// result 3.85

----------
experiment: Cmax in healthy human at 400 mg, po administered as single dose; format: ADME, organism-based; set-up: dose 400 mg, route oral; conditions: in vivo
value-kind: Cmax (µM)
Express the result in µM but write the number alone.

// query Cmax for Cc1nnc(C(=O)NC(C)(C)c2nc(C(=O)NCc3ccc(F)cc3)c(O)c(=O)n2C)o1 [RALTEGRAVIR] ?
// result 5.68
